Assay: A549 lung cancer cell viability effects, profiling panel, resazurin fluorescence, 24 h, PK04 Diversity Set (AID 1171); further: test concentration not given here
Details: higher = more signal, called active from +8 up or from −8 down
test.readout: z-score
Provide a numeric answer; units are not to be included.

compound=CCCNC(=O)OC[C@H]1O[C@H](CCON=C2[C@H]3CCn4c(=O)n(-c5ccccc5)c(=O)n4[C@H]3[C@H](O)[C@@H]3O[C@H]23)C=C[C@@H]1Oc1ccc(OC)cc1 recorded_value=-1.2

GET /values?readout=z-score&item= CO[C@@H]1COC(=O)CC=C[C@@H](C)[C@@H]2C=C[C@H](O)[C@@H](COC(=O)[C@H](C)NC(=O)CC=C[C@H]1C)O2 0.612

What value of z-score has been reported for the following compound? CCOC(=O)[C@H](Cc1ccccc1)NC(=O)CCC1CC(OC(=O)NCc2ccc3c(c2)OCO3)CC2(CCCC(COC(=O)NCc3cccc(C(F)(F)F)c3)O2)O1 (stereo partly drawn) -0.0224

---

# Lookup of reported composite z-score keyed by entry
System: Inhibin beta A chain (activin A)
Test: INHBA (activin A) binders on microarrays, primary screen, biochemical, small-molecule microarray, 635 nm fluorescence scan (AID 1107);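 further: mouse activin A protein probed at 4.33 µg/mL on printed slides; score merges bound-protein fluorescence near 667 nm with spot signal-to-noise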
Settings: small-molecule microarray binding, higher = more signal
// return a plain number; no unit text

// below: answered compounds
compound=CC(=O)OC[C@H]1O[C@H](C#CCCCc2ccccc2)C=C[C@@H]1OC(C)=O test_system="Inhibin beta A chain (activin A)" test_readout="composite z-score" recorded_value=1.03
compound=O=C1O[C@@H](c2ccccc2)[C@@H](c2ccccc2)N2[C@@H](c3ccc(OCCO)cc3)[C@]3(C(=O)Nc4ccc(C#CCCO)cc43)[C@@H](C(=O)N3CCCCCCC3)[C@H]12 test_system="Inhibin beta A chain (activin A)" test_readout="composite z-score" recorded_value=1.71
compound=Cc1ccc(F)cc1S(=O)(=O)N[C@@H]1CCN(Cc2ccc(CC(C)C)cc2)C1 test_system="Inhibin beta A chain (activin A)" test_readout="composite z-score" recorded_value=0.346
compound=C[C@@H]1CC[C@H]2C(=O)O[C@H](COc3ccc(C(C)(C)C)cc3)CN2[C@H]1c1ccc(Br)cc1 test_system="Inhibin beta A chain (activin A)" test_readout="composite z-score" recorded_value=0.352
compound="CCN1C(=O)[C@H]2[C@H]3[C@H](O)[C@H](O)CC(=NOC(C)CN4CCCCc5nc(C)c(C)cc54)[C@@H]3CC[C@H]2C1=O (some centres not stated)" test_system="Inhibin beta A chain (activin A)" test_readout="composite z-score" recorded_value=0.834

For the record CC(=O)OC[C@H]1O[C@H](CCON=C(C)CCN2CCc3nc(-c4ccccc4)c(-c4ccccc4)cc3C2)C=C[C@@H]1OC(C)=O , what value of composite z-score is listed for Inhibin beta A chain (activin A)? 1.16

Recall the recorded composite z-score for C#CCCCON=C1C[C@@H](O)[C@@H](O)[C@@H]2[C@@H]3C(=O)N(c4cccc(Oc5ccccc5)c4)C(=O)[C@@H]3CC[C@@H]12 with Inhibin beta A chain (activin A) and state it. -0.211

---

Assay: PSAC antagonists in infected red cells, primary screen, cell-based, P. falciparum Indochina, OD700, 1 h (AID 1154)
Settings: P. falciparum Indochina infected RBC osmotic lysis, called active from +8 up or from −8 down
Activity calls are given as the source filed them.
Just give me one of these, please: True (active), False (inactive)

Worked set:
structure_notation=CCN1C(=O)[C@H]2[C@H]3[C@H](O)C=CC(=O)[C@@H]3CC[C@H]2C1=O assigned_class=False
structure_notation=O=C(NN=C1C[C@@H](O)[C@@H](O)[C@@H]2[C@@H]3C(=O)N(c4ccc(F)cc4F)C(=O)[C@@H]3CC[C@@H]12)OCc1ccccc1 assigned_class=False

In this assay, the call recorded for CC(=O)C[C@H](O)[C@@H](NC(=O)OC(C)(C)C)C(C)C was what? False

What was the test verdict on COC(=O)[C@]1(CO)N=C(c2ccc(OCCCO)cc2)O[C@@H]1c1ccccc1N=[N+]=[N-] ? True

For Cc1ccc(S[C@]2(C(=O)NCC(F)(F)F)CC(=O)N(Cc3ccccc3Cl)[C@@H]2c2ccc(CO)cc2I)cc1 , which call appears in the assay record? False

Hi, do you know how NCCCCCNC(=O)[C@@H]1C[C@@H]2C(=O)N3CCC[C@H]3C(=O)N2[C@@H]1c1cccc(OCCO)c1 came out in this test? False

Test call for this compound, please: COc1cccc([C@@H]2Oc3ccc(Br)cc3C(=O)[C@H]2O)c1 True

Query: recorded result category for CC(C)(C)OC(=O)CC[C@]1(C(=O)NCc2ccccc2)N=C(c2ccc(OCCCO)cc2)O[C@H]1c1ccccc1 in this test True
